# System: HCV replicon
# methodSummary: Replicon based assay of HCV replication inhibition (NPT ELISA)
# Type: cell-based, Hepatitis C virus
# testConditions: Hepatitis C virus, replicon based assay of HCV replication inhibition; Table IV; read-out: Activity
Could you please report measured EC50 for the items listed next?

// lookup EC50 | system=HCV replicon | key= FC(F)(F)c1cc(Nc2nc(-c3cnccn3)cs2)ccc1OCCCCc1cccs1
< 1 µM

Similarly, Nc1sc(Nc2ccc(OCc3ccccc3)cc2)nc1-c1ccc(F)cc1 ?
1 to 10 µM

# iterate: CCCCCCCCOc1ccc(Nc2nc(C3=CSC4=NC(=O)CN34)cs2)cc1C(F)(F)F
< 1 µM

Also CCN(CC)S(=O)(=O)c1cc(Nc2nc(-c3cccnc3)cs2)ccc1Cl ?
> 10 µM

// query: CCCCCCCS(=O)(=O)CCc1ccc(Nc2nc(-c3cccnc3)cs2)cc1
1 to 10 µM

What about this molecule? c1cncc(-c2csc(Nc3cc(-c4cccs4)n[nH]3)n2)c1
> 10 µM

###

# System: HCV replicon
# methodSummary: Replicon based assay of HCV replication inhibition (NPT ELISA)
# Assay type: cell-based, Hepatitis C virus
# testConditions: Hepatitis C virus, replicon based assay of HCV replication inhibition; Table IV; read-out: Activity
Task for the reader: assign each of the following compounds its reported EC50.

Any idea what its EC50 is? The compound is C#CCCOc1ccc(Nc2nc(-c3cccnc3)cs2)cc1C(F)(F)F
< 1000 nM

For COc1ccc(Nc2nc(-c3cccnc3)cs2)cc1S(=O)(=O)Nc1ccc(Cl)cc1 then?
> 10000 nM

What do you get for O=S(=O)(Nc1ccccn1)c1ccc(Nc2nc(-c3cccnc3)cs2)cc1 ?
> 10000 nM

What would you report for Fc1ccc(Cn2ccc3cc(Nc4nc(-c5ccc(F)cc5)cs4)ccc32)cc1 ?
> 10000 nM

Try Cc1ccc(CCCCOc2ccc(Nc3nc(-c4ccc(CC(=O)O)s4)cs3)cc2C(F)(F)F)cc1 next.
< 1000 nM

How about this compound: CCCCCCCCOc1ccc(Nc2nc(-c3cccnc3)c(F)s2)cc1C(F)(F)F
< 1000 nM

And for CCCCCCCCOc1ccc(Nc2nc(C3=CSC4=NCCCN34)cs2)cc1C(F)(F)F ?
< 1000 nM

Now give it for FC(F)(F)c1cc(Nc2nc(-c3cccnc3)cs2)ccc1CCCCCc1ccccc1 too.
< 1000 nM

###

# System: HCV replicon
# methodSummary: Replicon based assay of HCV replication inhibition (NPT ELISA)
# Format: cell-based, Hepatitis C virus
# testConditions: Hepatitis C virus, replicon based assay of HCV replication inhibition; Table IV; read-out: Activity
propertyMeasured: EC50

# query: EC50 | item CCCCCCCN(C)Cc1ccc(Nc2nc(-c3cccnc3)c(C)s2)cc1C(F)(F)F | system: HCV replicon
1000 to 10000 nM

Queued: CCCCCCC=Cc1ccc(Nc2nc(-c3cccnc3)cs2)cc1C(F)(F)F
< 1000 nM

Check CCCCCCCCOc1ccc(Nc2nc(-c3nc(C(=O)OCC)cs3)cs2)cc1C(F)(F)F too.
< 1000 nM

Try the compound O=C(O)Cc1ccc(-c2csc(Nc3ccc(OCCCC4CCCC4)c(C(F)(F)F)c3)n2)s1
< 1000 nM

Same lookup for CCCCCCCCc1ccc(Nc2nc(-c3cnc(OC)nc3)cs2)cc1C(F)(F)F , please.
< 1000 nM

Please give the result for CCCCCCCN(C)Cc1ccc(Nc2nc(-c3cccnc3)cs2)cc1C(F)(F)F too.
< 1000 nM

Then what about the compound Cc1cccc(CCCCOc2ccc(Nc3nc(-c4cccnc4)cs3)cc2C(F)(F)F)c1 ?
< 1000 nM

Another compound to check: c1cncc(-c2csc(Nc3nc(-c4ccc5ccccc5c4)cs3)n2)c1
1000 to 10000 nM

Another compound to look at: Cc1cc(C)cc(Nc2nc(-c3cccnc3)cs2)c1
1000 to 10000 nM

Request: Cc1sc(Nc2ccc(OCCCCc3ccccc3)c(C(F)(F)F)c2)nc1-c1cccnc1
< 1000 nM

Note, next up: CCCCCCCCOc1ccc(Nc2nc(-c3cccnc3)c(C)s2)cc1C(F)(F)F
< 1000 nM

Cool, now CC(=O)Nc1ccc(Nc2nc(-c3cccnc3)cs2)cc1
> 10000 nM

Now the same for O=C(O)Cc1ccc(Nc2nc(-c3cccnc3)cs2)cc1
> 10000 nM

Try Cc1sc(Nc2ccc(OCCCC3CCCC3)c(C(F)(F)F)c2)nc1-c1cccnc1 next.
< 1000 nM

Next: Clc1cc(Nc2nc(-c3cccnc3)cs2)ccc1N1CCOCC1
1000 to 10000 nM

Follow-up entry: CCCCOC(=O)c1n[nH]c(Nc2nc(-c3cccnc3)cs2)n1
> 10000 nM

Another: COc1cc(-c2ccccc2)c(C)cc1Nc1nc(-c2cccnc2)cs1
< 1000 nM

Can you handle CCCCCCCCS(=O)(=O)c1ccc(Nc2nc(-c3cccnc3)cs2)cc1 next?
< 1000 nM

###

# System: HCV replicon
# methodSummary: Replicon based assay of HCV replication inhibition (NPT ELISA)
# Format: cell-based, Hepatitis C virus
# testConditions: Hepatitis C virus, replicon based assay of HCV replication inhibition; Table IV; read-out: Activity
pEC50: −log10 of the molar value.
propertyMeasured: pEC50

Sample c1ccc(-c2cc(Nc3nc(-c4cccnc4)cs3)[nH]n2)cc1 [compound 754] — what was its pEC50?
< 5.00

And for CCC(C)(C)c1ccc(Oc2ccccc2)c(Nc2nc(-c3cccnc3)cs2)c1 [compound 902] ?
> 6.00

Likewise for CCCCCCCCOc1ccc(Nc2nc(-c3cnc(NC(C)=O)[nH]3)cs2)cc1C(F)(F)F [compound 865] ?
> 6.00

Item: CCCCCCCCOc1ccc(Nc2nc(-c3ccc(O)cc3O)cs2)cc1C(F)(F)F [compound 782]
> 6.00

Can you check CC(C)CCCOc1ccc(Nc2nc(-c3cccnc3)cs2)cc1C(F)(F)F [compound 824] next?
> 6.00

Request: Cc1c(C)c(C)c(C(=O)CCc2cccc(Nc3nc(-c4cccnc4)cs3)c2)c(C)c1C [compound 898]
> 6.00

What about this molecule? O=C(O)Cc1ccc(-c2csc(Nc3ccc(OCCCCc4cccs4)c(C(F)(F)F)c3)n2)s1 [compound 925]
> 6.00

Then what about the molecule COc1ncc(-c2csc(Nc3ccc(OCCCc4cccnc4)c(C(F)(F)F)c3)n2)cn1 [compound 830] ?
5.00 to 6.00

Try the molecule c1ccc(-c2ccc(Nc3nc(-c4cccnc4)cs3)cn2)cc1 [compound 756]
5.00 to 6.00

For COc1ncc(-c2csc(Nc3ccc(OCCCC4CCCC4)c(C(F)(F)F)c3)n2)cn1 [compound 803] then?
> 6.00

Query Cc1cc(OC(F)(F)F)ccc1Nc1nc(-c2cccnc2)cs1 [compound 877] next
< 5.00

# iterate: FC(F)(F)c1cc(Nc2nc(-c3cccnc3)cs2)cc(C(F)(F)F)c1 [compound 874]
5.00 to 6.00

What do you get for N#Cc1cncc(-c2csc(Nc3ccc(OCC4CCCCC4)c(F)c3)n2)c1 [compound 728] ?
> 6.00

Same lookup for CCOC(=O)Cc1ccc(-c2csc(Nc3ccc(OCCSc4ccccc4)c(C(F)(F)F)c3)n2)s1 [compound 934] , please.
5.00 to 6.00

Lookup COc1cc(Nc2nc(-c3cccnc3)cs2)cc(OC)c1 [compound 901]
5.00 to 6.00

Try the molecule Cc1sc(Nc2ccc(OCCCCc3cccs3)c(F)c2)nc1-c1cccnc1 [compound 854]
5.00 to 6.00

Same lookup for FC(F)(F)c1cc(Nc2nc(-c3cccc4cccnc34)cs2)ccc1OCC1CCCCC1 [compound 774] , please.
> 6.00

Then what about the molecule c1cncc(-c2csc(Nc3ccc4ncsc4c3)n2)c1 [compound 753] ?
< 5.00

What about Clc1ccc(-c2cc(Nc3nc(-c4cccnc4)cs3)[nH]n2)cc1 [compound 738] ?
< 5.00

What do you get for COc1ncc(-c2csc(Nc3ccc(OCC4CCCCC4)c(C(F)(F)F)c3)n2)c(OC)n1 [compound 767] ?
> 6.00

How about Fc1ccc(Cn2ccc3ccc(Nc4nc(-c5cccnc5)cs4)cc32)cc1 [compound 867] ?
> 6.00

How about this molecule: CCCCCCCCOc1ccc(Nc2nc(-c3ccc(F)cc3)c(N)s2)cc1C(F)(F)F [compound 857]
> 6.00

Another molecule: CN(C)C(=O)c1ccc(Nc2nc(-c3cccnc3)cs2)cc1 [compound 821]
< 5.00

Moving on to the next molecule: COc1ncc(-c2csc(Nc3ccc(OC/C=C(\C)CCC=C(C)C)c(C(F)(F)F)c3)n2)cn1 [compound 775]
> 6.00

Moving on to CCCCCCCCc1ccc(Nc2nc(-c3cccnc3)cs2)cc1C(F)(F)F [compound 825]
> 6.00
